assay: Acute toxicity in the case of subcutaneous administration to mice; conditions: mouse, in vivo, sc

| molecule | LD50 |
| --- | --- |
| CN(C)CCCCOc1ccc(C(=O)c2ccccc2)cc1 [Compound 1] | > 4000 mg/kg |
| C=CCN(C)CCCCCCOc1ccc(C(=O)c2ccccc2)cc1 [Compound 31] | 1000 to 2000 mg/kg |

* * *

biological target: 2,3-epoxysqualene-lanosterol cyclase (Candida albicans, UniProt Q04782); experiment: Inhibition of 2,3-epoxysqualene-lanosterol cyclase from Candida albicans (cell-free extract, 14C-squalene epoxide); assay type: biochemical; conditions: C. albicans cell-free extract, pH 6.9, 30°, 1 hour; read-out: IC50 (converted)
Sequence (Q04782 whole entry): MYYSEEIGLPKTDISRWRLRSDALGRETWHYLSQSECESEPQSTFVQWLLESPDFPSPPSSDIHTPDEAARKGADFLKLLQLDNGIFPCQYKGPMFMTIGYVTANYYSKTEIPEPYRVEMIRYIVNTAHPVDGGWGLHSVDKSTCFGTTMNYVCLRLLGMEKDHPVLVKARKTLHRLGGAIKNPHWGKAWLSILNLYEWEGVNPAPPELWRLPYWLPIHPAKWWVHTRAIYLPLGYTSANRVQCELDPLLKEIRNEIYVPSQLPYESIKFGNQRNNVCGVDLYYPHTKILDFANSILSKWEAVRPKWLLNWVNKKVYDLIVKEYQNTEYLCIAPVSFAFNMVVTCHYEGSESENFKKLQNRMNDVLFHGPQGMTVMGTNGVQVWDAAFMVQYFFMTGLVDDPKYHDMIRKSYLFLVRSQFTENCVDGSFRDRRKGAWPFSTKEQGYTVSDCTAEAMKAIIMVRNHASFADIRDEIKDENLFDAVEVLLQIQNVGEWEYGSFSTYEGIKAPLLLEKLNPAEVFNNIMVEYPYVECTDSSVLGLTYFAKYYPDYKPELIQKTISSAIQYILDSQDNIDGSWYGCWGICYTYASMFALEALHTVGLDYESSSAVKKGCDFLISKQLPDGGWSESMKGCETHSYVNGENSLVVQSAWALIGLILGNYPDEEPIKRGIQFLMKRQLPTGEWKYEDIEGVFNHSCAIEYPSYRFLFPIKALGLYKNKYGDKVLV
Where a name gives a salt, the structure may show the parent alone.
readout name: log10(IC50) (log10 of the value in nM)

| molecule | log10(IC50) |
| --- | --- |
| CN(C)CCCCCCOc1ccc(C(=O)CCc2ccccc2)cc1 | 3.00 |
| CN(C)C/C=C/COc1ccc(C(=O)c2ccccc2)cc1 | 2.87 |
| CN(C)CCCCCCOc1cccc(C(=O)CCc2ccccc2)c1 | 3.45 |
| CN(C)CCCCCCOc1ccc(C(=O)Cc2ccccc2)cc1 | 2.28 |
| CN(C)C/C=C/COc1ccc(C(=O)c2ccc(Cl)cc2Cl)cc1 | 2.25 |
| CN(C)CCCCCCCOc1ccc(C(=O)c2ccccc2)cc1 | 2.55 |
| CN(C)CCCCCCOc1ccc(C(=O)c2ccc(Cl)cc2Cl)cc1Cl | 2.37 |
| CCCN(CCC)CCCCCCOc1ccc(C(=O)c2ccccc2)cc1 | 3.38 |
| CN(C)CCCCCCCCOc1ccc(C(=O)c2ccccc2)cc1 | 3.08 |
| CNCCCCCCOc1ccc(C(=O)c2ccccc2)cc1 | 2.98 |
| Cc1cccc(C(=O)c2ccc(OCCCCCCN(C)C)cc2)c1C | 3.08 |
| CN(C)CCCCCCOc1ccc(C(=O)c2ccc(F)cc2)cc1 | 2.72 |
| CN(C)CCCCCOc1ccc(C(=O)c2ccccc2)cc1 | 2.71 |
| CN(C)CCCCCCOc1cccc(C(=O)c2ccccc2)c1 | 3.79 |
| CCN(CC)CCCCCCOc1ccc(C(=O)CCc2ccccc2)cc1 | 2.85 |
| CN(C)CCCCCCOc1ccc(C(=O)c2cc(Cl)cc(Cl)c2)cc1 | 3.58 |
| CN(C)CCCCCCOc1ccc(C(=O)c2ccc([N+](=O)[O-])cc2)cc1 | 2.88 |
| CN(C)CCCCCCOc1ccc(CC(=O)c2ccccc2)cc1 | 2.75 |
| CN(C)CCCCCCOc1ccc(C(=O)/C=C/c2ccccc2)cc1 | 3.23 |
| CN(C)CCCCCCCCCOc1ccc(C(=O)c2ccccc2)cc1 | 3.64 |
| CN(C)CCCCCCOc1ccc(C(=O)c2ccccc2)cc1 [Compound 3, hydrochloride] | 2.66 |

* * *

target: 2,3-epoxysqualene-lanosterol cyclase (Candida albicans); test: Inhibition of 2,3-epoxysqualene-lanosterol cyclase from Candida albicans (cell-free extract, 14C-squalene epoxide); format: biochemical; conditions: C. albicans cell-free extract, pH 6.9, 30°, 1 hour; read-out: IC50 (converted)
Reported values of IC50 for individual entries
readout name: IC50 (nM)

| item smiles | measurement unit | assay value |
| --- | --- | --- |
| CN(C)CCCCCCCCCCOc1ccc(C(=O)c2ccccc2)cc1 | nM | 5240 |
| CCN(CC)CCCCCCOc1ccc(C(=O)c2ccccc2)cc1 | nM | 1020 |
| CCN(CC)CCCCCCOc1cccc(C(=O)CCc2ccccc2)c1 | nM | 1570 |
| Cc1cc(C(=O)c2ccccc2)ccc1OCCCCCCN(C)C | nM | 560 |
| CN(C)CCCCCCOc1cccc(C(=O)/C=C/c2ccccc2)c1 | nM | 6540 |
| O=C(c1ccccc1)c1ccc(OCCCCCCN2CCCC2)cc1 | nM | 967 |
| CN(C)CCCCCCOc1ccc(C(=O)c2c(F)c(F)c(F)c(F)c2F)cc1 | nM | 2140 |
| CCN(CC)CCCCCCOc1ccc(C(=O)C#Cc2ccccc2)cc1 | nM | 8210 |
| CN(C)CCCCCCOc1ccc(C(=O)c2ccc(Cl)cc2Cl)cc1 | nM | 659 |
